List of Kp at 1 h values.
assay: Drug metabolism experiment on prodrug in SD rats: concentration in liver compared with blood; assay type: in vivo; settings: male, Sprague-Dawley (SD), rat, liver / plasma (heading prints blood), po, 3 mg/kg, 1 h, SD rats, oral 3 mg/kg Compound 10; read-out: Liver-to-blood ratio

1. Cc1cc(OCP(=O)(O)O)cc(C)c1Cc1ccc(O)c2c1CCC2(C)C 29.1

Please examine the following record next.
Query: Specify measured Kp at 1 h for `Cc1cc(OC[P@@]2(=O)OCC[C@@H](c3cccc(Cl)c3)O2)cc(C)c1Cc1ccc(O)c2c1CCC2(C)C` .
Reply: 16.2

* * *

assay: Drug metabolism experiment on prodrug in SD rats: concentration in liver compared with blood; type: in vivo; settings: male, Sprague-Dawley (SD), rat, liver / plasma (heading prints blood), po, 3 mg/kg, 4 h, SD rats, oral 3 mg/kg Compound 9; read-out: Liver-to-blood ratio
attribute_measured: Kp at 4 h
Respond with the number and no other words.

Query: Look up and state reported Kp at 4 h for `Cc1cc(OCP(=O)(O)O)cc(C)c1Cc1ccc(O)c2c1CCC2(C)C`
Reply: 16.2

* * *

assay: Drug metabolism experiment on prodrug in SD rats: plasma pharmacokinetic parameters; type: in vivo; conditions: male, Sprague-Dawley (SD), rat, plasma, po, 3 mg/kg, oral 3 mg/kg Compound 10
The following compounds are listed with their measured Tmax values.
Respond numerically; units are h and should not be typed.

1) Cc1cc(OC[P@@]2(=O)OCC[C@@H](c3cccc(Cl)c3)O2)cc(C)c1Cc1ccc(O)c2c1CCC2(C)C 4.67

Query: Find the measured Tmax of `Cc1cc(OCP(=O)(O)O)cc(C)c1Cc1ccc(O)c2c1CCC2(C)C` and report it.
Reply: 6.67

* * *

test: Drug metabolism experiment on prodrug in SD rats: plasma pharmacokinetic parameters; format: in vivo; details: male, Sprague-Dawley (SD), rat, plasma, po, 3 mg/kg, oral 3 mg/kg Compound 10
attribute_measured: AUC(0-inf)

compound	AUC(0-inf)
Cc1cc(OCP(=O)(O)O)cc(C)c1Cc1ccc(O)c2c1CCC2(C)C [Compound 1]	613 ng·h/mL

Next compound, AUC(0-inf) to be filled in.
Query: // Input: Cc1cc(OC[P@@]2(=O)OCC[C@@H](c3cccc(Cl)c3)O2)cc(C)c1Cc1ccc(O)c2c1CCC2(C)C [Compound 10] . Output its AUC(0-inf) only.
Reply: 89.3 ng·h/mL

* * *

assay: Drug metabolism experiment on prodrug in SD rats: concentration in liver compared with blood; format: in vivo; details: male, Sprague-Dawley, rat, liver/plasma, po, 3 mg/kg, 24 h, SD rats, oral 3 mg/kg VK-2809; read-out: Liver-to-blood ratio
attribute_measured: Kp at 24 h
Please give the numeric answer without any surrounding text.

Query: Could you please provide reported Kp at 24 h for Cc1cc(OCP(=O)(O)O)cc(C)c1Cc1ccc(O)c(C(C)C)c1 [MB07444, reference compound] ? Thanks!
Reply: 9.9

* * *

Here, each record is paired with measured AUC(0-inf) data.
experiment: Drug metabolism experiment on prodrug in SD rats: plasma pharmacokinetic parameters; format: in vivo; conditions: male, Sprague-Dawley (SD), rat, plasma, po, 3 mg/kg, oral 3 mg/kg VK2809
Entry rule: numbers only, all in ng·h/mL.

compound	attribute_measured	quantitative_result
Cc1cc(OCP(=O)(O)O)cc(C)c1Cc1ccc(O)c(C(C)C)c1 [MB07444, reference compound]	AUC(0-inf)	448

Next item in the queue.
Query: Hello, please tell me recorded AUC(0-inf) for this one: Cc1cc(OC[P@@]2(=O)OCC[C@@H](c3cccc(Cl)c3)O2)cc(C)c1Cc1ccc(O)c(C(C)C)c1 [VK2809, reference compound]
Reply: 83.3

* * *

// Kp at 8 h lookup, one value per entry
experiment: Drug metabolism experiment on prodrug in SD rats: concentration in liver compared with blood; assay type: in vivo; conditions: male, Sprague-Dawley, rat, liver/plasma, po, 3 mg/kg, 8 h, SD rats, oral 3 mg/kg VK-2809; read-out: Liver-to-blood ratio
// return a plain number; no unit text

compound	quantitative_result
Cc1cc(OCP(=O)(O)O)cc(C)c1Cc1ccc(O)c(C(C)C)c1 [MB07444, reference compound]	13.6

Here is the next item to consider.
Query: Look up Kp at 8 h of Cc1cc(OC[P@@]2(=O)OCC[C@@H](c3cccc(Cl)c3)O2)cc(C)c1Cc1ccc(O)c(C(C)C)c1 [VK2809, reference compound] and report it.
Reply: 4

* * *

test: Drug metabolism experiment on prodrug in SD rats: concentration in liver compared with blood; format: in vivo; details: male, Sprague-Dawley (SD), rat, liver, po, 3 mg/kg, 1 h, SD rats, oral 3 mg/kg Compound 9; read-out: Ct Liver
attribute_measured: concentration at 1 h (ng/g)
# number only, unit ng/g dropped from output

Query: Give the reported concentration at 1 h for this molecule. Cc1cc(OCP(=O)(O)O)cc(C)c1Cc1ccc(O)c2c1CCC2(C)C [Compound 1]
Reply: 312

* * *

Measured Kp at 8 h of individual entries
test: Drug metabolism experiment on prodrug in SD rats: concentration in liver compared with blood; format: in vivo; settings: male, Sprague-Dawley (SD), rat, liver / plasma (heading prints blood), po, 3 mg/kg, 8 h, SD rats, oral 3 mg/kg Compound 10; read-out: Liver-to-blood ratio
Give only the figure.

compound	quantitative_result
Cc1cc(OCP(=O)(O)O)cc(C)c1Cc1ccc(O)c2c1CCC2(C)C [Compound 1]	17.7

For the next question, use this compound.
Query: Answer with the recorded Kp at 8 h of Cc1cc(OC[P@@]2(=O)OCC[C@@H](c3cccc(Cl)c3)O2)cc(C)c1Cc1ccc(O)c2c1CCC2(C)C [Compound 10] only.
Reply: 4.7

* * *

assay: Drug metabolism experiment on prodrug in SD rats: plasma pharmacokinetic parameters; format: in vivo; conditions: male, Sprague-Dawley (SD), rat, plasma, po, 3 mg/kg, oral 3 mg/kg Compound 9
attribute_measured: half-life (h)
# unit: h | format: bare number

Query: In one line, give reported half-life of the entry Cc1cc(OCP(=O)(O)O)cc(C)c1Cc1ccc(O)c2c1CCC2(C)C [Compound 1] .
Reply: 4.82

* * *

molecular target: THR-β (Homo sapiens); construct: TRB LBD, GST purchased from Thermo Fisher; purchased Thermo Fisher PV4762; experiment: Test of the binding ability of the compound to TRβ (TRβ LBD/RXR, biotin-SRC2-2 co-activating peptide, 665/615 nm fluorescence ratio); format: biochemical; settings: activity relative to positive control
Sequence (P10828 217-461 limits assumed, other chains not shown): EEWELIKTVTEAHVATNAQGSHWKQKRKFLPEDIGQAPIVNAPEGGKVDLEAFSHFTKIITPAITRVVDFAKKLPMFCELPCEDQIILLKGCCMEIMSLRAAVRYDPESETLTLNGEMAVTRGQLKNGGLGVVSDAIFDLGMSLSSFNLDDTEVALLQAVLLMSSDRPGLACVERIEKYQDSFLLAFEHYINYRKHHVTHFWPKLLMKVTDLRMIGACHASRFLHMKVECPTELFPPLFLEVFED
Sequence (P28702 whole entry partner, other chains not shown, the tested form may be a part): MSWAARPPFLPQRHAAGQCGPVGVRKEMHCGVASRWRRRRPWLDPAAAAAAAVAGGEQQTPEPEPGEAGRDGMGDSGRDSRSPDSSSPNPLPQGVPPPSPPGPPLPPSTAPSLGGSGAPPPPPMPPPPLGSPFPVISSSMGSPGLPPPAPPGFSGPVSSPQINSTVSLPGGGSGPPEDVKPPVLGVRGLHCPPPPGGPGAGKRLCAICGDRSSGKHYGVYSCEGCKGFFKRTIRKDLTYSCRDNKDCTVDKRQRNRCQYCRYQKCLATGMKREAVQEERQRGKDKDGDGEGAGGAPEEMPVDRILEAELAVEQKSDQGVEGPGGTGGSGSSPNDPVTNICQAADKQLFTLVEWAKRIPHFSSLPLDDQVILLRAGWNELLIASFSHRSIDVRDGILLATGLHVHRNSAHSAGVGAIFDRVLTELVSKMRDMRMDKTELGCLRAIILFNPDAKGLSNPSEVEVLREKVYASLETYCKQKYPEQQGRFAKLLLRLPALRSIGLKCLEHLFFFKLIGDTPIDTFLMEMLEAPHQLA
Readings of Emax for the listed molecules
Give the value, in units of %, as a plain number.

molecule	target_under_test	attribute_measured	value_unit	quantitative_result
Cc1cc(OCP(=O)(O)O)cc(C)c1Cc1ccc(O)c2ccccc12 [A, reference compound]	THR-β (Homo sapiens)	Emax	%	100

Query: State, in one line, measured Emax of `Cc1cc(OCP(=O)(O)O)cc(C)c1Cc1ccc(O)c2c1CCC2(C)C`
Reply: 104

Query: Tell me Emax reported for `Cc1cc(OCP(=O)(O)O)cc(C)c1Oc1ccc(O)c2c1CCC2(C)C`
Reply: 110

Query: Indicate the recorded Emax value for this molecule: Cc1cc(OCP(=O)(O)O)cc(C)c1Cc1ccc(O)c2c1CCC2C (centres unmarked)
Reply: 104

Query: Return the recorded Emax value; entry: `Cc1cc(OCP(=O)(O)O)cc(C)c1Cc1ccc(O)c2c1CCCC2(C)C`
Reply: 100

Query: Query Emax for Cc1cc(OCP(=O)(O)O)cc(C)c1Cc1ccc(O)c(C(C)C)c1 [MB07444, reference compound]
Reply: 113

Query: Give a short answer stating reported Emax for Cc1cc(OCP(=O)(O)O)cc(C)c1Cc1ccc(O)c2c1CCCC2 [B, reference compound] .
Reply: 111

Query: # return recorded Emax for input `CC1(C)CCc2c(Cc3c(Cl)cc(OCP(=O)(O)O)cc3Cl)ccc(O)c21`
Reply: 79

* * *

experiment: Drug metabolism experiment on prodrug in SD rats: plasma pharmacokinetic parameters; assay type: in vivo; conditions: male, Sprague-Dawley (SD), rat, plasma, po, 3 mg/kg, oral 3 mg/kg Compound 9
attribute_measured: AUC(0-t) (ng·h/mL)
API: value field is a number in ng·h/mL; no unit string.

Query: Answer with reported AUC(0-t) of `Cc1cc(OCP(=O)(O)O)cc(C)c1Cc1ccc(O)c2c1CCC2(C)C`
Reply: 1290

* * *

experiment: Drug metabolism experiment on prodrug in SD rats: concentration in liver compared with blood; format: in vivo; conditions: male, Sprague-Dawley, rat, liver, po, 3 mg/kg, 8 h, SD rats, oral 3 mg/kg VK-2809; read-out: Ct Liver
attribute_measured: concentration at 8 h

molecule	concentration at 8 h
Cc1cc(OCP(=O)(O)O)cc(C)c1Cc1ccc(O)c(C(C)C)c1 [MB07444, reference compound]	542 ng/g

Proceed to the following item.
Query: Supply reported concentration at 8 h belonging to this molecule: Cc1cc(OC[P@@]2(=O)OCC[C@@H](c3cccc(Cl)c3)O2)cc(C)c1Cc1ccc(O)c(C(C)C)c1 [VK2809, reference compound]
Reply: 17 ng/g
